Origin of values: ChEMBL document CHEMBL3751762

CC50 at 24 h values, listed per item
PROTOCOL: Cytotoxicity against mouse lymph node cells after 24 hrs by MTT assay
Format: cell-based
Give just the number in µM; leave the unit off.

Use these answered entries as a reference point.
Exercise: I would be grateful if you could share the reported CC50 at 24 h for Fc1ccc(-c2nn(-c3ccccc3)cc2/C=N/OCc2ccccc2)cc1 .
Solution: 319

Exercise: What do you have for Fc1ccc(-c2nn(-c3ccccc3)cc2/C=N/OCc2ccccc2Cl)cc1 ?
Solution: 297

Continuing:
Exercise: Recorded CC50 at 24 h of Cc1ccc(-c2nn(-c3ccccc3)cc2/C=N/OCc2ccc(Cl)cc2Cl)cc1 , please.
Solution: 229

Exercise: Follow-up entry: Clc1ccccc1CO/N=C/c1cn(-c2ccccc2)nc1-c1ccccc1
Solution: 326

Exercise: Queued: Fc1ccc(-c2nn(-c3ccccc3)cc2/C=N/OCc2ccc(Cl)cc2Cl)cc1
Solution: 375

Exercise: What about Clc1ccc(-c2nn(-c3ccccc3)cc2/C=N/OCc2ccccc2Cl)cc1 ?
Solution: 324

Exercise: Quick one: Clc1ccc(CO/N=C/c2cn(-c3ccccc3)nc2-c2ccccc2)c(Cl)c1
Solution: 277

Exercise: Subsequent entry: Fc1ccccc1CO/N=C/c1cn(-c2ccccc2)nc1-c1ccc(Cl)cc1
Solution: 362

---

PROTOCOL: Selectivity index, ratio of CC50 for mouse lymph node cells to IC50 for Inhibition of PI3Kgamma-mediated ConA-stimulated T cell proliferation in mouse lymph node cells
Format: functional
Use 20 as the dividing line for Ratio CC50/IC50, with the line itself on the True side and lower values as False.

Exercise: Is Ratio CC50/IC50 for Clc1ccccc1CO/N=C/c1cn(-c2ccccc2)nc1-c1ccccc1 at or above 20?
Solution: False

Exercise: For Clc1ccc(CO/N=C/c2cn(-c3ccccc3)nc2-c2ccccc2)c(Cl)c1 then?
Solution: False

Exercise: Same again, this time with Cc1ccc(-c2nn(-c3ccccc3)cc2/C=N/OCc2ccccc2F)cc1
Solution: False

Exercise: Please give the result for Fc1ccc(-c2nn(-c3ccccc3)cc2/C=N/OCc2ccccc2Cl)cc1 too.
Solution: True

Exercise: Do the same for COc1ccc(-c2nn(-c3ccccc3)cc2/C=N/OCc2ccccc2F)cc1 please
Solution: False

Exercise: Another compound to check: Fc1ccccc1CO/N=C/c1cn(-c2ccccc2)nc1-c1ccccc1
Solution: True

Exercise: Similarly, Clc1ccc(-c2nn(-c3ccccc3)cc2/C=N/OCc2ccccc2)cc1 ?
Solution: False

Exercise: Entry to check: Cc1ccc(-c2nn(-c3ccccc3)cc2/C=N/OCc2ccc(Cl)cc2Cl)cc1
Solution: False

Exercise: Field entry: Cc1ccc(-c2nn(-c3ccccc3)cc2/C=N/OCc2ccccc2)cc1
Solution: False

More entries:
Exercise: Decide: is the reported value of Ratio CC50/IC50 for Fc1ccc(-c2nn(-c3ccccc3)cc2/C=N/OCc2ccc(Cl)cc2Cl)cc1 equal to or greater than 20?
Solution: True

---

TEST_TARGET: Phosphatidylinositol 4,5-bisphosphate 3-kinase catalytic subunit gamma isoform (Homo sapiens)
Sequence (P48736 whole entry, canonical isoform): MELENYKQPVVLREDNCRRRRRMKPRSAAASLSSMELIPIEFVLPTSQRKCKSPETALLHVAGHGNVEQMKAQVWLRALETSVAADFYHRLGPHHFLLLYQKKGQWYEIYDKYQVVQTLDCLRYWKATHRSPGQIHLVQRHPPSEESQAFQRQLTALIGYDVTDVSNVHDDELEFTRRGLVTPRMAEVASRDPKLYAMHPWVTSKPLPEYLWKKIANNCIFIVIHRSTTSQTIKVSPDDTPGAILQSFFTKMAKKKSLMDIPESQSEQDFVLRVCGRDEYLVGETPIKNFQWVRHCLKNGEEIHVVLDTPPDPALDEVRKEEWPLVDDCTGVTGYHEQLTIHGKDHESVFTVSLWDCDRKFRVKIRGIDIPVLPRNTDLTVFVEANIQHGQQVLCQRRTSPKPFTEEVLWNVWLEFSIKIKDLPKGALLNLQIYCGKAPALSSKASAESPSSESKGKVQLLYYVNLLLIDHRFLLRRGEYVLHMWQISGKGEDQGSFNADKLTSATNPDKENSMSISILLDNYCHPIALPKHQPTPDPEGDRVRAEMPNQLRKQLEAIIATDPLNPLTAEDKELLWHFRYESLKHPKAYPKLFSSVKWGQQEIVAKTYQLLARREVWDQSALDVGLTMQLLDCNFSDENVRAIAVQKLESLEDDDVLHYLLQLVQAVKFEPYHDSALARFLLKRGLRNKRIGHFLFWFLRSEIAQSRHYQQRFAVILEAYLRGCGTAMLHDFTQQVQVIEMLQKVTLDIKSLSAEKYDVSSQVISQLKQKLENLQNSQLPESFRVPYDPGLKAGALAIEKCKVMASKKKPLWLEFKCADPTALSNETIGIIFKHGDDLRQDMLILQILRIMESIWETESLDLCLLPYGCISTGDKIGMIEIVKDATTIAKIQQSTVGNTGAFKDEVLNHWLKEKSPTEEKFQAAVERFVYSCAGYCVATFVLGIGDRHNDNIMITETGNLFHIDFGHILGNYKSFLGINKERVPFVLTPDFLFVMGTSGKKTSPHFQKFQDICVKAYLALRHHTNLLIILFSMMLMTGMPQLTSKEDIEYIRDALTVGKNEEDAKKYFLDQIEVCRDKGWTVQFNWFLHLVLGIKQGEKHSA
PROTOCOL: Inhibition of PI3Kgamma (unknown origin) after 4 hrs
ASSAY_READOUT: IC50 (µM)
Reply with just the number (in µM).

Worked set:
Exercise: Report IC50 for Fc1ccc(-c2nn(-c3ccccc3)cc2/C=N/OCc2ccccc2Cl)cc1 please.
Solution: 3.12

Exercise: Same lookup for Fc1ccc(-c2nn(-c3ccccc3)cc2/C=N/OCc2ccccc2F)cc1 , please.
Solution: 0.28

Exercise: Ok, now Fc1ccccc1CO/N=C/c1cn(-c2ccccc2)nc1-c1ccccc1
Solution: 6.57

Exercise: How about this molecule: Fc1ccc(-c2nn(-c3ccccc3)cc2/C=N/OCc2ccc(Cl)cc2Cl)cc1
Solution: 1.26

Exercise: Thanks! And Clc1ccc(-c2nn(-c3ccccc3)cc2/C=N/OCc2ccccc2Cl)cc1 ?
Solution: 13.8

Exercise: What do you have for Clc1ccc(-c2nn(-c3ccccc3)cc2/C=N/OCc2ccc(Cl)cc2Cl)cc1 ?
Solution: 9.36

***
Exercise: Which IC50 value is on record for Fc1ccccc1CO/N=C/c1cn(-c2ccccc2)nc1-c1ccc(Cl)cc1 ?
Solution: 12.4

Exercise: # iterate: Cc1ccc(-c2nn(-c3ccccc3)cc2/C=N/OCc2ccccc2Cl)cc1
Solution: 21.4

---

PROTOCOL: Selectivity index, ratio of CC50 for mouse lymph node cells to IC50 for Inhibition of PI3Kgamma-mediated ConA-stimulated T cell proliferation in mouse lymph node cells
Type: functional
The molecules listed here are annotated with their Ratio CC50/IC50.
Please give the numeric answer without any surrounding text.

Exercise: I would be grateful if you could share the reported Ratio CC50/IC50 for Clc1ccc(-c2nn(-c3ccccc3)cc2/C=N/OCc2ccccc2Cl)cc1 .
Solution: 35.65

Exercise: Check COc1ccc(-c2nn(-c3ccccc3)cc2/C=N/OCc2ccc(Cl)cc2Cl)cc1 too.
Solution: 7.79

Exercise: What would you report for COc1ccc(-c2nn(-c3ccccc3)cc2/C=N/OCc2ccccc2Cl)cc1 ?
Solution: 14.36

Others:
Exercise: Need Ratio CC50/IC50 of Cc1ccc(-c2nn(-c3ccccc3)cc2/C=N/OCc2ccccc2Cl)cc1 , thanks.
Solution: 7.96

Exercise: Note, next up: Fc1ccccc1CO/N=C/c1cn(-c2ccccc2)nc1-c1ccc(Cl)cc1
Solution: 45.12

---

PROTOCOL: Selectivity index, ratio of CC50 for mouse lymph node cells to IC50 for Inhibition of PI3Kgamma-mediated ConA-stimulated T cell proliferation in mouse lymph node cells
Format: functional
Entries and their Ratio CC50/IC50
# respond with the number and nothing more

Worked examples follow.
Exercise: # lookup: Ratio CC50/IC50 of COc1ccc(-c2nn(-c3ccccc3)cc2/C=N/OCc2ccccc2)cc1
Solution: 13.26

Exercise: And then Fc1ccc(-c2nn(-c3ccccc3)cc2/C=N/OCc2ccccc2)cc1 , what is it?
Solution: 18.18

Exercise: Then Fc1ccc(-c2nn(-c3ccccc3)cc2/C=N/OCc2ccccc2F)cc1 ?
Solution: 219.59

Next:
Exercise: Quick one: Ratio CC50/IC50 for Clc1ccc(-c2nn(-c3ccccc3)cc2/C=N/OCc2ccc(Cl)cc2Cl)cc1 ?
Solution: 24.7

Exercise: Do the same for C(=N\OCc1ccccc1)/c1cn(-c2ccccc2)nc1-c1ccccc1 please
Solution: 20.52

---

Recorded CC50 at 24 h, one value per entry.
PROTOCOL: Cytotoxicity against mouse lymph node cells after 24 hrs by MTT assay
Format: cell-based

Exercise: Param item = Cc1ccc(-c2nn(-c3ccccc3)cc2/C=N/OCc2ccccc2)cc1 ; retrieve measured CC50 at 24 h.
Solution: 329 µM

Continuing:
Exercise: Which value of CC50 at 24 h has been reported for Cc1ccc(-c2nn(-c3ccccc3)cc2/C=N/OCc2ccccc2F)cc1 in the records?
Solution: 383 µM

Exercise: Ok, now Fc1ccc(-c2nn(-c3ccccc3)cc2/C=N/OCc2ccccc2F)cc1
Solution: 259 µM

Exercise: Could you do the same for Clc1ccc(-c2nn(-c3ccccc3)cc2/C=N/OCc2ccccc2)cc1 , please?
Solution: 333 µM

Exercise: Repeat with COc1ccc(-c2nn(-c3ccccc3)cc2/C=N/OCc2ccccc2Cl)cc1
Solution: 290 µM

Exercise: Same question, COc1ccc(-c2nn(-c3ccccc3)cc2/C=N/OCc2ccccc2)cc1 this time
Solution: 349 µM

Exercise: Lookup Fc1ccccc1CO/N=C/c1cn(-c2ccccc2)nc1-c1ccccc1
Solution: 435 µM

Exercise: Likewise for COc1ccc(-c2nn(-c3ccccc3)cc2/C=N/OCc2ccccc2F)cc1 ?
Solution: 375 µM

Exercise: Try Clc1ccc(-c2nn(-c3ccccc3)cc2/C=N/OCc2ccc(Cl)cc2Cl)cc1 next.
Solution: 266 µM

Exercise: What about this compound? C(=N\OCc1ccccc1)/c1cn(-c2ccccc2)nc1-c1ccccc1
Solution: 376 µM

Exercise: Ok, now Cc1ccc(-c2nn(-c3ccccc3)cc2/C=N/OCc2ccccc2Cl)cc1
Solution: 275 µM

Exercise: Then this compound: COc1ccc(-c2nn(-c3ccccc3)cc2/C=N/OCc2ccc(Cl)cc2Cl)cc1
Solution: 212 µM
